Assay protocol: Antiproliferative activity against human HCCLM7 cells after 72 hrs by MTT method
Type: functional, cell-based
Stated conditions: HCCLM7, 72 h
Value kind: IC50

Query :: What measured IC50 goes with `CN1CCN(/C=C2\Oc3ccccc3C2=O)CC1` ?
Result :: > 50 µM

Query :: What measured IC50 goes with `O=C1/C(=C/N2CCCCC2)Oc2ccccc21` ?
Result :: > 50 µM

Query :: What measured IC50 goes with `O=c1c(Sc2nc3ccccc3s2)coc2ccccc12` ?
Result :: > 50 µM

Query :: What measured IC50 goes with `O=c1[nH]cc(F)c(=O)[nH]1` ?
Result :: 18.6 µM

Query :: What measured IC50 goes with `Nc1nnc(Sc2coc3ccccc3c2=O)s1` ?
Result :: > 50 µM

Query :: What measured IC50 goes with `Cc1nnc(Sc2coc3ccccc3c2=O)s1` ?
Result :: > 50 µM

Query :: What measured IC50 goes with `O=C1/C(=C/N2CCN(CC(c3ccc(F)cc3)c3ccc(F)cc3)CC2)Oc2ccccc21` ?
Result :: 12.1 µM

Query :: What measured IC50 goes with CN1CCN(/C=C2\Oc3ccccc3C2=O)C(c2ccccc2)C1 (centres undefined) ?
Result :: > 50 µM

Query :: What measured IC50 goes with `O=c1c(Sc2nc3ccccc3o2)coc2ccccc12` ?
Result :: > 50 µM

Query :: What measured IC50 goes with `O=C1/C(=C/N2CCN(Cc3ccccc3)CC2)Oc2ccccc21` ?
Result :: 9.6 µM

Query :: What measured IC50 goes with `Cc1cc(C)nc(Sc2coc3ccccc3c2=O)n1` ?
Result :: > 50 µM

Query :: What measured IC50 goes with `O=c1c(Sc2nc3ccccc3[nH]2)coc2ccccc12` ?
Result :: > 50 µM

Query :: What measured IC50 goes with `Cc1nnc(Sc2coc3ccccc3c2=O)o1` ?
Result :: > 50 µM

Query :: What measured IC50 goes with `O=C1/C(=C/N2CCN(c3ccccc3)CC2)Oc2ccccc21` ?
Result :: 45.1 µM
